- protocol_summary: Volume of distribution in rabbit
- Format: ADME, organism-based, Oryctolagus cuniculus
- particulars: in vivo
reported_metric: Vd (L/kg)
Answer in L/kg, number only, no unit symbol.

Q. Field request: Vd | item: Cc1noc(Cn2nc3ccc(-c4ccc(OC(F)(F)F)cc4)cn3c2=O)n1
A. 2.24

###

- protocol_summary: Terminal half life in rat
- Assay type: ADME, organism-based
- particulars: in vivo, read-out: beta t1/2 (converted)
reported_metric: half-life (h)
Return type: number; implicit unit h.

Q. What value of measured half-life is listed for Cc1noc(Cn2nc3ccc(-c4ccc(OC(F)(F)F)cc4)cn3c2=O)n1 ?
A. 2.1

These measurements were taken from ChEMBL document CHEMBL3808373.
